These entries and their values trace back to the supplement of paper PMC10567573.

B1: SNAP91 (parent)
chain: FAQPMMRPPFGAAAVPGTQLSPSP

variants of: B1; test: protein stability index of a GFP-peptide fusion (GPS, HEK-293T) (PSI 1-6); higher = more stable; conditions: c terminus: a fixed tail appended;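 note: lentivirally expressed fusions sorted by FACS into six bins by GFP to DsRed ratio, PSI derived from sequencing read proportions per bin multiplied by bin number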
ATTRIBUTE_MEASURED: protein stability index

Recorded protein stability index, per entry:
R7T
2.67
A2D
4.69
S21V
3.44
P16K
3.25
P9R
3.77
F1Q
4.66

Q: I would be grateful if you could share the reported protein stability index for A14D .
Result: 2.79

Q: I would be grateful if you could share the reported protein stability index for F1R .
Result: 4.19

Q: I would be grateful if you could share the reported protein stability index for V15K .
Result: 2.92

Q: I would be grateful if you could share the reported protein stability index for M5V .
Result: 3.01

Q: I would be grateful if you could share the reported protein stability index for A2F .
Result: 2.96

Q: I would be grateful if you could share the reported protein stability index for P24E .
Result: 3.45
